# Test system: T98G
# Assay Notes: Antiproliferative activity against human T98G cells assessed as decrease in cell number after 72 hrs by WST assay
# Type: functional, cell-based
Recorded Endpoint: IC50
In your response, the unit should come after the numeric value.

q: # return recorded IC50 for entry `C=C1/C(=C\C=C2/CCC[C@]3(C)[C@@H]([C@H](C)CC#CP(=O)(OCC)OCC)CC[C@@H]23)C[C@@H](O)C[C@@H]1O`
a: 36.1 nM

---

# Test system: SVEC vGPCR (Mouse)
# Assay Notes: Antiproliferative activity against mouse SVEC vGPCR cells assessed as decrease in cell number after 72 hrs by WST assay
Recorded Endpoint: IC50 (nM)
API: value field is a number in nM; no unit string.

q: # return recorded IC50 for entry `C=C1/C(=C\C=C2/CCC[C@]3(C)[C@@H]([C@H](C)CC#CP(=O)(OCC)OCC)CC[C@@H]23)C[C@@H](O)C[C@@H]1O`
a: 113
